B1: library; numbered along this chain (parent)
chain: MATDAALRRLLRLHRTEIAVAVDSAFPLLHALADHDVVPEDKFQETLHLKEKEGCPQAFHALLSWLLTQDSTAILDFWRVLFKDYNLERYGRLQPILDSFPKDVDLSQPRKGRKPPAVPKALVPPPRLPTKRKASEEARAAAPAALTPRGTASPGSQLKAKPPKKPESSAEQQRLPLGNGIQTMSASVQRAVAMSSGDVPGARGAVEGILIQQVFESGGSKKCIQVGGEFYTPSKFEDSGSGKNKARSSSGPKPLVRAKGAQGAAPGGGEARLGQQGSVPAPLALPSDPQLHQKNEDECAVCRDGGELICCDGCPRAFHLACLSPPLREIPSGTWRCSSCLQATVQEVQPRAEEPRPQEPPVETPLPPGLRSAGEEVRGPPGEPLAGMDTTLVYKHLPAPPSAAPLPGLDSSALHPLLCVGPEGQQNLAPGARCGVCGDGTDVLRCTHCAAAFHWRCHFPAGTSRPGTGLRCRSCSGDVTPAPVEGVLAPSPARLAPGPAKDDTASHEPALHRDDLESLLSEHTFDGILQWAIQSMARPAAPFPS

variants of: B1; test: AIRE transcriptional activation functional score (insulin promoter-GFP; nonsense median 0, synonymous median 1) (normalised score); higher = higher AIRE activity (more reporter activation); settings: with insulin promoter-GFP reporter in HEK293
Entries and their AIRE transcriptional activation functional score values follow.

Worked examples follow.
# mutation-name, reported-result
rows = [
    ("P166Q", 1.16),
    ("K111E", 0.792),
    ("C475M", -0.469),
]

## Task Bench note: what AIRE transcriptional activation functional score did D198K show?
## Result 0.684
